- Test system: serine hydroxymethyltransferase (SHMT)
- assay_text: Conversion of aldehyde substrates and glycine to β-hydroxy-α-amino acids by SHMT (HPLC assay)
- Assay type: biochemical, corn
- Parameters: key: + = conversion; - = no detectable conversion
- condition_set: incubation with glycine, 10 mM phosphate buffer pH 7.3, pyridoxal 5′-phosphate about 80 µM, about 37°C
observed_property: Aldehyde (RCHO) Substrates for SHMT, Enzyme Corn Seedlings

Example cases with answers are listed next.
O=CC(=O)O | -
COC(=O)CCC=O | +
COC(=O)CCCC=O | +
O=Cc1ccccc1 | -
CC=O | +

Enquiry: Identify the measured Aldehyde (RCHO) Substrates for SHMT, Enzyme Corn Seedlings of CCC=O for serine hydroxymethyltransferase (SHMT).
Return: +

Enquiry: Identify the measured Aldehyde (RCHO) Substrates for SHMT, Enzyme Corn Seedlings of O=CCCc1ccco1 for serine hydroxymethyltransferase (SHMT).
Return: -

Enquiry: Identify the measured Aldehyde (RCHO) Substrates for SHMT, Enzyme Corn Seedlings of O=Cc1ccco1 for serine hydroxymethyltransferase (SHMT).
Return: +

Enquiry: Identify the measured Aldehyde (RCHO) Substrates for SHMT, Enzyme Corn Seedlings of O=CCOCc1ccccc1 for serine hydroxymethyltransferase (SHMT).
Return: +
